# test_method_notes: qHTS drug screen for cell cycle checkpoint inhibitors in PARPi-resistant BRCA-mutant ovarian cancer cell lines. (AID 1963452)
# condition_set: PEO1/OlaR viability, CellTiter-Glo luminescence, 96 h; measured here: PEO1 parental Z-AUC; stronger effect = lower value
Where a SMILES comes first, the peptide text is derived from it. Bridges are numbered along the chain shown (N, C = ends). [ ]: non-standard residue; d: D form. The star is where a group is joined. X1 = CCC(C)C(N)C1=NC(C(=O)*)CS1; dOrn = NCCC[C@@H](N)C(=O)O
Friendly reminder: Z-AUC below 0.9 is Satisfied, at or above is Not satisfied.

[[record]]
molecule = "CCC(C)C(N)C1=NC(C(=O)N[C@@H](CC(C)C)C(=O)N[C@H](CCC(=O)O)C(=O)N[C@H](C(=O)N[C@H]2CCCCNC(=O)[C@H](CC(N)=O)NC(=O)[C@@H](CC(=O)O)NC(=O)[C@H](Cc3cnc[nH]3)NC(=O)[C@@H](Cc3ccccc3)NC(=O)[C@H]([C@@H](C)CC)NC(=O)[C@@H](CCCN)NC2=O)[C@@H](C)CC)CS1 (some centres not stated) (X1-L[dE]IK[dOrn]I[dF]H[dD]N; lactam 4-C)"
category = "Not satisfied"

[[record]]
molecule = "CC(C)N(C[C@H]1O[C@@H](n2cnc3c(N)ncnc32)[C@H](O)[C@@H]1O)C1CC(CCc2nc3ccc(C(C)(C)C)cc3[nH]2)C1 (some centres not stated)"
category = "Not satisfied"

[[record]]
molecule = "Cc1cc(C)cc(NC(=O)Cc2ccc(OC(C)(C)C(=O)O)cc2)c1"
category = "Satisfied"

[[record]]
molecule = "COc1ncc(-c2ccc3c(Nc4cc(Oc5cc(F)cc(F)c5)cc(C(=O)O)c4)c(S(=O)(=O)NC4CC4)cnc3c2)c(OC)n1"
category = "Satisfied"

[[record]]
molecule = "N#Cc1ccnc(N2C(=O)CC[C@H]2C(=O)N(c2cncc(F)c2)[C@H](C(=O)NC2CC(F)(F)C2)c2ccccc2Cl)c1"
category = "Not satisfied"

[[record]]
molecule = "C[C@H]1CN(C[C@H](Cc2ccccc2)C(=O)NCC(=O)O)CC[C@@]1(C)c1cccc(O)c1"
category = "Satisfied"

[[record]]
molecule = "O=C(O)c1ccc(CCCc2ccc(OCCc3ccc(F)cc3)cc2)o1"
category = "Satisfied"

